# assayInfo: in vitro
# conditionContext: mouse
pIC50: −log10 of the molar value.
quantityName: pIC50

[
  {
    "entrySmiles": "O=C1C(=NNc2nc(-c3ccccc3)cs2)C(N=Cc2ccc(Cl)cc2)=NN1c1ccccc1",
    "pIC50": "< 3.00"
  },
  {
    "entrySmiles": "O=C1C(=NNc2nc(-c3ccccc3)cs2)C(N=Cc2ccc([N+](=O)[O-])cc2)=NN1c1ccccc1",
    "pIC50": "< 3.00"
  },
  {
    "entrySmiles": "O=C1C(=NNc2nc(-c3ccccc3)cs2)C(N=Cc2ccc(O)cc2O)=NN1c1ccccc1",
    "pIC50": "< 3.00"
  },
  {
    "entrySmiles": "O=C1C(=NNc2nc(-c3ccccc3)cs2)C(N=Cc2ccccc2Cl)=NN1c1ccccc1",
    "pIC50": 3.00
  }
]

Attention now turns to another entry.
The measured pIC50 associated with O=C1C(=NNc2nc(-c3ccccc3)cs2)C(N=Cc2cccc(Cl)c2)=NN1c1ccccc1 reads < 3.00
